- Test target: Aβ1-40 fibers (human)
- Experimental details: SPR
Reported property: pKd
pKd here is simply -log10 of the concentration when that concentration is written in mol/L.

MS-R 3.4H3 x 3.4L7 Fab (antibody, V domains shown) VH: QLVESGGGLVQPGGSLRLSCAASGFTFSSYAMSWVRQAPGKGLEWVSVISQTGRKIYYADSVKGRFTISRDNSKNTLYLQMNSLRAEDTAVYYCARLTHYARYYRYFDVWGQGTLVTVSS VL: DIVLTQSPATLSLSPGERATLSCRASQRLGRLYLAWYQQKPGQAPRLLIYGASSRATGVPARFSGSGSGTDFTLTISSLEPEDFATYYCQQTYDYPPTFGQGTKVEIKR: 9.04
MS-R 7.2H2 x 7.2L1 Fab (antibody, V domains shown) VH: QLVESGGGLVQPGGSLRLSCAASGFTFSSYAMSWVRQAPGKGLEWVSAINGTGMKKYYADSVKGRFTISRDNSKNTLYLQMNSLRAEDTAVYYCARGKGNTHKPYGYVRYFDVWGQGTLVTVSS VL: DIVLTQSPATLSLSPGERATLSCRASQYVDRTYLAWYQQKPGQAPRLLIYGASSRATGVPARFSGSGSGTDFTLTISSLEPEDFATYYCQQIYSFPHTFGQGTKVEIKR: 8.89

# input for lookup
The reported pKd of the binder MS-R 7.11H1 x 7.11L1 Fab (antibody, V domains shown) VH: QLVESGGGLVQPGGSLRLSCAASGFTFSSYAMSWVRQAPGKGLEWVSGINAAGFRTYYADSVKGRFTISRDNSKNTLYLQMNSLRAEDTAVYYCARGKGNTHKPYGYVRYFDVWGQGTLVTVSS VL: DIVLTQSPATLSLSPGERATLSCRASQRILRIYLAWYQQKPGQAPRLLIYGASSRATGVPARFSGSGSGTDFTLTISSLEPEDFATYYCQQVYSPPHTFGQGTKVEIKR was 9.39

Data provenance is patent US7794719.
